From: ChEMBL document CHEMBL2346572

test: Clearance in Han Wistar rat at 20 umol/kg, iv and 50 umol/kg, po; assay type: ADME, organism-based; conditions: in vivo
READOUT_TYPE: clearance (mL/min/kg)
Express it in mL/min/kg; write the number only.

Looking up OC1(c2cccnc2)CCN(c2ccc3nnc(C(F)(F)F)n3n2)CC1 , I found its clearance recorded as 38

====

Target: Androgen receptor (Homo sapiens)
Sequence (P10275 whole entry): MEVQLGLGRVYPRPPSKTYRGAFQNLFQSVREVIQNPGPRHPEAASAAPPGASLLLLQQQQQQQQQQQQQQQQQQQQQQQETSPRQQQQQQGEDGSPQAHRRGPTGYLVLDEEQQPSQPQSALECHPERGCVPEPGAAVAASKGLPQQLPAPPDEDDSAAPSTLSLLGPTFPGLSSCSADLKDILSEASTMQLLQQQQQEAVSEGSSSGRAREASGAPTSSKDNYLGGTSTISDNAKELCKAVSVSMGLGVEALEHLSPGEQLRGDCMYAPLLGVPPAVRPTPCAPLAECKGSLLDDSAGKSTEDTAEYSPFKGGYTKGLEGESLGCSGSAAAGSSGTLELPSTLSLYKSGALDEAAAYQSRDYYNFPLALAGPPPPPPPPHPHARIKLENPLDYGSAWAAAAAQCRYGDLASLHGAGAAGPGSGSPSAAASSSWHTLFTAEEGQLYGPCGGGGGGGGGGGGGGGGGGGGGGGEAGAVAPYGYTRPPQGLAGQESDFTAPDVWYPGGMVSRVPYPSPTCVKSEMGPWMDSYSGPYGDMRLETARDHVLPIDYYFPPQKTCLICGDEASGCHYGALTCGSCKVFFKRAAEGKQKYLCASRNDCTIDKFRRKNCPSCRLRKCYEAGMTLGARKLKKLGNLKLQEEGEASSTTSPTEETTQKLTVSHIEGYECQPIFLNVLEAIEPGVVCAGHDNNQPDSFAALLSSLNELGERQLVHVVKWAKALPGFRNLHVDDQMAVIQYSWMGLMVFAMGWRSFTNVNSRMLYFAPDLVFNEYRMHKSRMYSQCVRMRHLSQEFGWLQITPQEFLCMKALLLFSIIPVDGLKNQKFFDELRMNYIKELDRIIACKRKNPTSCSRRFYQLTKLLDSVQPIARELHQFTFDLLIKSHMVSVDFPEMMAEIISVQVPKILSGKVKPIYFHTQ
Assay: Displacement of [3H]R1881 from full length androgen receptor in human LNCAP cells
READOUT_TYPE: pKi
// pKi: -log10(molar conc.)

Looking up CC(=O)N1CCN(CCOc2ccc(C3CCN(C4=Nn5c(nnc5C(F)(F)F)CC4)CC3)cc2)CC1 , I found its pKi recorded as 5.66

====

assay: Fraction unbound in human plasma by equilibrium dialysis method; format: ADME, cell-free
For each record, write down the corresponding fraction unbound.
// print number alone

Looking up Fc1ccc(CN2CCN(C3=Nn4c(nnc4C(F)(F)F)CC3)CC2)cc1 , I found its fraction unbound recorded as 0.12

Looking up CC(=O)N1CCN(CCOc2ccc(C3CCN(c4ccc5nnc(C(F)(F)F)n5n4)CC3)cc2)CC1 , I found its fraction unbound recorded as 0.027

Looking up Fc1cccc(CN2CCN(c3ccc4nnc(C(F)(F)F)n4n3)CC2)c1F , I found its fraction unbound recorded as 0.017

Looking up OC1(c2cccnc2)CCN(c2ccc3nnc(C(F)(F)F)n3n2)CC1 , I found its fraction unbound recorded as 0.26

Looking up N#Cc1ccc(CN2CCN(c3ccc4nnc(C(F)(F)F)n4n3)CC2)cc1 , I found its fraction unbound recorded as 0.044

Looking up Fc1ccc(CN2CCN(c3ccc4nnc(C(F)(F)F)n4n3)CC2)cc1 , I found its fraction unbound recorded as 0.02

Looking up OC1(c2ccc(F)cc2)CCN(c2ccc3nnc(C(F)(F)F)n3n2)CC1 , I found its fraction unbound recorded as 0.04

Looking up Cn1nccc1CCOc1ccc(C2CCN(c3ccc4nnc(C(F)(F)F)n4n3)CC2)cc1 , I found its fraction unbound recorded as 0.0016

Looking up CC(=O)N1CCN(CCOc2ccc(C3(O)CCN(c4ccc5nnc(C(F)(F)F)n5n4)CC3)cc2)CC1 , I found its fraction unbound recorded as 0.17

Looking up CC(=O)N1CCN(CCOc2ccc(C3CCN(C4=Nn5c(nnc5C(F)(F)F)CC4)CC3)cc2)CC1 , I found its fraction unbound recorded as 0.12
